IC50 values for the molecules below.
SYSTEM_NAME: BRD2 (Homo sapiens, UniProt P25440)
Construct: 45 nM His-Brd2(60-472) or 45 nM His-Brd3(20-477)
Sequence (P25440 60-472): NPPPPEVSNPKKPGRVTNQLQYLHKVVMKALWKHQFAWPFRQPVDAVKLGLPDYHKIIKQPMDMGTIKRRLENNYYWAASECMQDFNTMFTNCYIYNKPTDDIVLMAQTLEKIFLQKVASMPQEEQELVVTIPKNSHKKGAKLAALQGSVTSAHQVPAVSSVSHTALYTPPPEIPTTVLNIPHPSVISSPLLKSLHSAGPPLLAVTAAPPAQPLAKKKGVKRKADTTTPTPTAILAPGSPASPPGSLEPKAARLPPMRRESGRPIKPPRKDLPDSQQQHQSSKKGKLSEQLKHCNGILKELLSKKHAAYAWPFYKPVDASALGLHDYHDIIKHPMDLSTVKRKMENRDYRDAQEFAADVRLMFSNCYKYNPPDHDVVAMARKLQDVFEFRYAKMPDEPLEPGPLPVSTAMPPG
EXPERIMENT_NOTES: TR-FRET in-vitro binding assay for BRD2
CONDITION_NOTES: Biochemical IC50 values, His-Brd2(60-472)

{"MOLECULE": "Cc1nn(C2CC2)c2c1C(c1ccc(Cl)cc1)N(c1cc(C)c(=O)n(C)c1)C2=O (racemic) [Example 23]", "SYSTEM_NAME": "BRD2 (Homo sapiens, UniProt P25440)", "IC50": "0.099 µM"}
{"MOLECULE": "Cc1cc(N2C(=O)c3nn(C)cc3[C@@H]2c2ccc(Cl)cc2)cn(C)c1=O [Example 15]", "SYSTEM_NAME": "BRD2 (Homo sapiens, UniProt P25440)", "IC50": "> 6.7 µM"}
{"MOLECULE": "COc1ncc(-n2nc3c(c2C(C)C)[C@H](c2ccc(Cl)cc2)N(c2cc(C)c4onc(C)c4c2)C3=O)c(OC)n1 [Example 61]", "SYSTEM_NAME": "BRD2 (Homo sapiens, UniProt P25440)", "IC50": "> 37 µM"}

====

Test system: K-562 cells
Reported GI50 is given for each of the following molecules.
REPORTED_METRIC: GI50

{"MOLECULE": "CCn1nc2c(c1C)C(c1ccc(Cl)cc1F)N(c1cc(C)c3nnc(C)n3c1)C2=O (stereo not shown)", "RECORDED_RESULT": "0.208 µM"}
{"MOLECULE": "Cc1nn(-c2ccnn2C)c2c1[C@@H](c1ccc(Cl)cc1)N(c1cc(C)c3nnc(C)n3c1)C2=O", "RECORDED_RESULT": "0.101 µM"}
{"MOLECULE": "COc1ncccc1-n1nc(C)c2c1C(=O)N(c1cc(C)c3nnn(C)c3n1)C2c1ccc(Cl)cc1 (stereo not shown)", "RECORDED_RESULT": "0.269 µM"}
{"MOLECULE": "CCn1nc(C)c2c1C(=O)N(c1cc(C)c(=O)n(C)c1)C2c1ccc(Cl)cc1F (stereo not shown)", "RECORDED_RESULT": "0.0485 µM"}
{"MOLECULE": "COc1ncccc1-n1nc2c(c1C)C(c1ccc(F)cc1F)N(c1cc(C)c3nnc(C)n3c1)C2=O (stereo not shown)", "RECORDED_RESULT": "0.202 µM"}
{"MOLECULE": "COc1nccc(-n2nc(C)c3c2C(=O)N(c2cc(C)c(=O)n(C)c2)C3c2ccc(Cl)cc2)n1 (stereo not shown)", "RECORDED_RESULT": "1.25 µM"}
{"MOLECULE": "Cc1nn(C2CC2)c2c1[C@H](c1ccc(Cl)cc1)N(c1cc(C)c3nnc(C)n3c1)C2=O", "RECORDED_RESULT": "> 10 µM"}
{"MOLECULE": "CCOC(=O)N1CC(n2nc(C)c3c2C(=O)N(c2cc(C)c(=O)n(C)c2)C3c2ccc(Cl)cc2)C1 (stereo not shown)", "RECORDED_RESULT": "0.639 µM"}
{"MOLECULE": "Cc1nn(-c2ccnn2C)c2c1[C@H](c1ccc(Cl)cc1)N(c1cc(C)c3nnc(C)n3c1)C2=O", "RECORDED_RESULT": "2.52 µM"}
{"MOLECULE": "Cc1[nH]nc2c1C(c1ccc(Cl)cc1F)N(c1cc(C)c(=O)n(C)c1)C2=O (stereo not shown)", "RECORDED_RESULT": "0.921 µM"}
{"MOLECULE": "Cc1nn(C)c2c1C(c1ccc(Cl)cc1)N(c1cc(C)c(=O)n(C)c1)C2=O (stereo not shown)", "RECORDED_RESULT": "0.48 µM"}
{"MOLECULE": "Cc1c2c(nn1C1CC1)C(=O)N(c1cc(Cl)c(=O)n(C)c1)[C@H]2c1ccc(Cl)cc1", "RECORDED_RESULT": "> 10 µM"}
{"MOLECULE": "Cc1nn(C2CNC2)c2c1C(c1ccc(Cl)cc1)N(c1cc(C)c(=O)n(C)c1)C2=O (stereo not shown)", "RECORDED_RESULT": "2.06 µM"}
{"MOLECULE": "Cc1n[nH]c2c1C(c1ccc(F)cc1F)N(c1cc(C)c3nnc(C)n3c1)C2=O (stereo not shown)", "RECORDED_RESULT": "1.08 µM"}
{"MOLECULE": "Cc1cc(N2C(=O)c3c(c(C(F)(F)F)nn3C3CC3)C2c2ccc(Cl)cc2)cn(C)c1=O (stereo not shown)", "RECORDED_RESULT": "0.994 µM"}
{"MOLECULE": "Cc1cc(N2C(=O)c3c(c(C4CC4)nn3C)C2c2ccc(Cl)cc2)cn2c(C)nnc12 (racemic)", "RECORDED_RESULT": "0.0989 µM"}

====

Below: a set of entries, each annotated with reported GI50.
Test system: MV-4-11 cells

{"COMPOUND": "Cc1cc(N2C(=O)c3nn(C(C)C)c(C)c3C2c2ccc(Cl)cc2F)cn2c(C)nnc12 (stereo not shown)", "GI50 [nM]": 31.1}
{"COMPOUND": "Cc1nn(C2CC2)c2c1C(c1ccc(OC(F)(F)F)cc1)N(c1cc(C)c(=O)n(C)c1)C2=O (stereo not shown)", "GI50 [nM]": 140}
{"COMPOUND": "Cc1nn(-c2ccnn2C)c2c1[C@H](c1ccc(Cl)cc1)N(c1cc(C)c3nnc(C)n3c1)C2=O", "GI50 [nM]": 296}
{"COMPOUND": "CC(=O)N1CC(n2nc(C)c3c2C(=O)N(c2cc(C)c(=O)n(C)c2)C3c2ccc(Cl)cc2)C1 (stereo not shown)", "GI50 [nM]": 115}
{"COMPOUND": "CCc1nn(C(=O)N(C)C)c2c1C(c1ccc(Cl)cc1)N(c1cc(C)c(=O)n(C)c1)C2=O (stereo not shown)", "GI50 [nM]": 67}
{"COMPOUND": "Cc1cc(N2C(=O)c3nn(C4CNC4)c(C)c3C2c2ccc(Cl)cc2)cn2c(C)nnc12 (stereo not shown)", "GI50 [nM]": 438}
{"COMPOUND": "COc1ncccc1-n1nc(C)c2c1C(=O)N(c1cc(C)c3nnc(C)n3c1)C2c1ccc(F)cc1F (stereo not shown)", "GI50 [nM]": 57.1}
{"COMPOUND": "Cc1nn(C2CC2)c2c1[C@@H](c1ccc(Cl)cc1)N(c1cc(Cl)c(=O)n(C)c1)C2=O", "GI50 [nM]": 51.9}
{"COMPOUND": "COCc1nn(C2CC2)c2c1[C@@H](c1ccc(Cl)cc1)N(c1cc(C)c3nnc(C)n3c1)C2=O", "GI50 [nM]": 10.3}
{"COMPOUND": "CCc1nn(CCOC)c2c1C(c1ccc(Cl)cc1)N(c1cc(C)c(=O)n(C)c1)C2=O (stereo not shown)", "GI50 [nM]": 34.6}
{"COMPOUND": "Cc1cc(N2C(=O)c3c(c(C(F)(F)F)nn3C3CC3)C2c2ccc(Cl)cc2)cn(C)c1=O (stereo not shown)", "GI50 [nM]": 251}
{"COMPOUND": "CCc1nn(-c2cnc(OC)nc2OC)c2c1C(c1ccc(Cl)cc1)N(c1cc(C)c(=O)n(C)c1)C2=O (stereo not shown)", "GI50 [nM]": 86.9}
{"COMPOUND": "CCc1c2c(nn1C1CC1)C(=O)N(c1cc(C)c(=O)n(C)c1)C2c1ccc(Cl)cc1 (stereo not shown)", "GI50 [nM]": 30.1}
{"COMPOUND": "Cc1cc(N2C(=O)c3nn(C)c(O)c3C2c2ccc(Cl)cc2)cn(C)c1=O (stereo not shown)", "GI50 [nM]": 3020}
{"COMPOUND": "Cc1cc(N2C(=O)c3nn(C(=O)N(C)C)c(C)c3[C@H]2c2ccc(Cl)cc2)cn2c(C)nnc12", "GI50 [nM]": 55.5}
{"COMPOUND": "Cc1[nH]nc2c1C(c1ccc(Cl)cc1)N(c1cc(C)c(=O)n(C)c1)C2=O (stereo not shown)", "GI50 [nM]": 55.9}
{"COMPOUND": "Cc1nn(C2CC2)c2c1C(c1ccc(Cl)cc1)N(c1cc(C)c3nnn(C)c3n1)C2=O (stereo not shown)", "GI50 [nM]": 5.25}
{"COMPOUND": "Cc1cc(N2C(=O)c3c(c(C4CC4)nn3C)[C@H]2c2ccc(Cl)cc2)cn2c(C)nnc12", "GI50 [nM]": 7.69}
{"COMPOUND": "Cn1cc(N2C(=O)c3c(cnn3C3CC3)C2c2ccc(Cl)cc2)cc(Cl)c1=O (stereo not shown)", "GI50 [nM]": 105}
{"COMPOUND": "Cc1nn(C(C)C)c2c1[C@@H](c1ccc(Cl)cc1)N(c1cc(C)c(=O)n(C)c1)C2=O", "GI50 [nM]": 9.97}
{"COMPOUND": "Cc1nn(C2CC2)c2c1[C@@H](c1ccc(Cl)cc1)N(c1cc(C)c(=O)n(C)c1)C2=O", "GI50 [nM]": 24.1}
{"COMPOUND": "COc1ncccc1-n1nc(C)c2c1C(=O)N(c1cc(C)c(=O)n(C)c1)[C@@H]2c1ccc(Cl)cc1", "GI50 [nM]": 34.5}
{"COMPOUND": "Cc1nn(C2CNC2)c2c1C(c1ccc(Cl)cc1)N(c1cc(C)c3nnc(C)n3c1)C2=O (stereo not shown)", "GI50 [nM]": 226}
{"COMPOUND": "CC(=O)Nc1cc(N2C(=O)c3c(c(C)nn3C3CC3)C2c2ccc(Cl)cc2)nn2c(C)nnc12 (stereo not shown)", "GI50 [nM]": 404}
{"COMPOUND": "COc1c2c(nn1C)C(=O)N(c1cc(C)c(=O)n(C)c1)C2c1ccc(Cl)cc1 (stereo not shown)", "GI50 [nM]": 88.8}
{"COMPOUND": "Cc1nn(C(=O)N(C)C)c2c1C(c1ccc(Cl)cc1)N(c1cc(C)c(=O)n(C)c1)C2=O (stereo not shown)", "GI50 [nM]": 79.3}
{"COMPOUND": "CNC(=O)n1nc(C)c2c1C(=O)N(c1cc(C)c(=O)n(C)c1)C2c1ccc(Cl)cc1 (stereo not shown)", "GI50 [nM]": 86}
{"COMPOUND": "CCOC(=O)N1CC(n2nc(C)c3c2C(=O)N(c2cc(C)c4nnc(C)n4c2)C3c2ccc(Cl)cc2)C1 (stereo not shown)", "GI50 [nM]": 35.6}
{"COMPOUND": "COc1ccccc1-n1nc(C)c2c1C(=O)N(c1cc(C)c3nnc(C)n3c1)C2c1ccc(Cl)cc1F (stereo not shown)", "GI50 [nM]": 144}
{"COMPOUND": "Cc1cc(N2C(=O)c3nn(C)cc3[C@H]2c2ccc(Cl)cc2)cn(C)c1=O", "GI50 [nM]": 75.8}
{"COMPOUND": "Cc1nn(C2CCC2)c2c1C(c1ccc(Cl)cc1)N(c1cc(C)c(=O)n(C)c1)C2=O (stereo not shown)", "GI50 [nM]": 19.5}
